System: 931267-113-T-J1-PDC KRAS spheroid with HUVEC/MSC, viability;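 further: compound exposure lasted 7 days before the readout; 100% = DMSO vehicle control viability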
assay-text: Anticancer human tumor 931267-113-T-J1-PDC patient-derived colon adenocarcinoma cell line growth inhibition [KRAS2]
condition-notes: second compound 3.16 µM; first compound 0.000316 µM; stronger effect = lower value
# viability, T/C listing for each entry below

In the examples that follow, each entry is paired with its recorded viability, T/C.
compound | recorded-metric | measured-result
CN(C)C/C=C/C(=O)Nc1cc2c(Nc3ccc(F)c(Cl)c3)ncnc2cc1O[C@H]1CCOC1 + C=CC(=O)N1CCN(c2nc(=O)n(-c3c(C)ccnc3C(C)C)c3nc(-c4c(O)cccc4F)c(F)cc23)C(C)C1 | viability, T/C | 138%
CC(=O)Nc1cccc(-n2c(=O)n(C3CC3)c(=O)c3c(Nc4ccc(I)cc4F)n(C)c(=O)c(C)c32)c1 + C=CC(=O)N1CCN(c2nc(=O)n(-c3c(C)ccnc3C(C)C)c3nc(-c4c(O)cccc4F)c(F)cc23)C(C)C1 | viability, T/C | 99%
Cn1ncnc1[C@H]1c2n[nH]c(=O)c3cc(F)cc(c23)N[C@@H]1c1ccc(F)cc1 + C=CC(=O)N1CCN(c2nc(OCC3CCCN3C)nc3c2CCN(c2cccc4cccc(C)c24)C3)CC1CC#N | viability, T/C | 1.48%

State its viability, T/C: CN(C)C/C=C/C(=O)Nc1cc2c(Nc3ccc(F)c(Cl)c3)ncnc2cc1O[C@H]1CCOC1 + C=CC(=O)N1CCN(c2nc(OCC3CCCN3C)nc3c2CCN(c2cccc4cccc(C)c24)C3)CC1CC#N 0.31%

State its viability, T/C: CC(=O)Nc1cccc(-n2c(=O)n(C3CC3)c(=O)c3c(Nc4ccc(I)cc4F)n(C)c(=O)c(C)c32)c1 + C=CC(=O)N1CCN(c2nc(OCC3CCCN3C)nc3c2CCN(c2cccc4cccc(C)c24)C3)CC1CC#N 0.24%

State its viability, T/C: CC(=O)Nc1cccc(-n2c(=O)n(C3CC3)c(=O)c3c(Nc4ccc(I)cc4F)n(C)c(=O)c(C)c32)c1 + CNCc1ccccc1-c1csc(C(C)Nc2nc(C)nc3cc(OC)c(OC)cc23)c1 0.32%

State its viability, T/C: CC(C)n1nc(-c2ccc3oc(N)nc3c2)c2c(N)ncnc21 + C=CC(=O)N1CCN(c2nc(=O)n(-c3c(C)ccnc3C(C)C)c3nc(-c4c(O)cccc4F)c(F)cc23)C(C)C1 108%

State its viability, T/C: Cn1ncnc1[C@H]1c2n[nH]c(=O)c3cc(F)cc(c23)N[C@@H]1c1ccc(F)cc1 + COc1cc2nc(C)nc(NC(C)c3cc(N)cc(C(F)(F)F)c3)c2cc1OC1CCOC1 69.5%

State its viability, T/C: Cn1ncnc1[C@H]1c2n[nH]c(=O)c3cc(F)cc(c23)N[C@@H]1c1ccc(F)cc1 + CNCc1ccccc1-c1csc(C(C)Nc2nc(C)nc3cc(OC)c(OC)cc23)c1 0.09%

State its viability, T/C: CC(=O)Nc1cccc(-n2c(=O)n(C3CC3)c(=O)c3c(Nc4ccc(I)cc4F)n(C)c(=O)c(C)c32)c1 + CC1OCC2(CCN(c3cnc(Sc4ccnc(N)c4Cl)c(N)n3)CC2)C1N 61.5%
